Test system: HCC1937
Test: normalised response (% of control), CellTiter-Glo; higher = more viable cells (100 = DMSO, 0 = benzethonium chloride kill control)
Details: incubation time: 72 h
Reported normalised response values are given for each entry in this list.
attributeMeasured: normalised response (%)

>>> observedresult("C=C(c1ccc(C(=O)O)cc1)c1cc2c(cc1C)C(C)(C)CCC2(C)C [Bexarotene] (1000 nM)")
102
>>> observedresult("CN(C)/N=N/c1[nH]cnc1C(N)=O [Dacarbazine] (1000 nM)")
101
>>> observedresult("O=C1CCC(N2C(=O)c3ccccc3C2=O)C(=O)N1 (configuration not stated) [Thalidomide] (1 nM)")
97.7
>>> observedresult("C[C@]12CC[C@@H]3c4ccc(O)cc4C[C@@H](CCCCCCCCC[S+]([O-])CCCC(F)(F)C(F)(F)F)[C@H]3[C@@H]1CC[C@@H]2O (some centres not stated) [Fulvestrant] (0.1 nM)")
105
>>> observedresult("CO[C@H]1/C=C\\C=C(/C)C(=O)NC2=CC(=O)C(NCCN(C)C)=C(C[C@@H](C)C[C@H](OC)[C@H](O)[C@@H](C)/C=C(\\C)[C@@H]1OC(N)=O)C2=O [Alvespimycin] (0.1 nM)")
92.7
>>> observedresult("Oc1nc(-c2ccc(C(F)(F)F)cc2)nc2c1CSCC2 [XAV-939] (10 nM)")
101
>>> observedresult("C[C@]12CC[C@@H]3c4ccc(O)cc4C[C@@H](CCCCCCCCC[S+]([O-])CCCC(F)(F)C(F)(F)F)[C@H]3[C@@H]1CC[C@@H]2O (some centres not stated) [Fulvestrant] (1 nM)")
96.9
